B1: FOXJ1 (parent)
chain: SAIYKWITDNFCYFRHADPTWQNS

Variants of: B1
Assay: protein stability index of a GFP-peptide fusion (GPS, HEK-293T) (PSI 1-6); higher = more stable;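 also: lentivirally expressed fusions sorted by FACS into six bins by GFP to DsRed ratio, PSI derived from sequencing read proportions per bin multiplied by bin number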
Details: c terminus: a fixed tail appended
protein stability index reference

Observe how each entry below is paired with its result.
Mutation Notation: F14H
Assay Metric: protein stability index
Test Result: 2.56

Mutation Notation: Y4E
Assay Metric: protein stability index
Test Result: 2.99

Mutation Notation: C12W
Assay Metric: protein stability index
Test Result: 3.99

Mutation Notation: I7M
Assay Metric: protein stability index
Test Result: 3.88

Mutation Notation: D18G
Assay Metric: protein stability index
Test Result: 2.24

Mutation Notation: K5T
Assay Metric: protein stability index
Test Result: 2.46

Mutation Notation: Y4D
Assay Metric: protein stability index
Test Result: 2.24

Mutation Notation: T20C
Assay Metric: protein stability index
Test Result: 3

Ask: Given the entry `Y13T` , report its measured protein stability index.
Result: 2.96

Ask: Given the entry `S24R` , report its measured protein stability index.
Result: 2.43

Ask: Given the entry `K5E` , report its measured protein stability index.
Result: 1.81

// data source = the supplement of paper PMC10567573
